- target-or-test-system: KRasG12C (M1-K169, biotinylated on the N-terminus) (Homo sapiens (Human), UniProt P01116, G12C)
- assay-comment: Covalent competition assay: scintillation proximity assay (SPA) quantifying covalent modification of KRASG12C
- condition-info: competition with radiolabeled covalent probe (Compound B/Compound A), 2 hours incubation, 10 nM KRasG12C
- Description: Cells were harvested by centrifugation and frozen at −80° C. until further processing. […] The cells were lysed by 4 passages through an Avestin Emulsiflex at about 20000 psi and insoluble debris removed by centrifugation and filtered through a 0.45 µm Durapore membrane (Millipore). […] Eluted protein fractions were analyzed by Novex NuPage 4-12% PAGE. […] Positive fractions were determined by PAGE (Novex NuPage 4-12% BisTris) analysis. […]
assay-readout: IC50 (nM)

Worked set:
compound C=CC(=O)N1CC2(CC(n3nc(N4CC[C@@H](CN5CC6(O)CC5C6)CC4(C)C)c(-c4c(Cl)c(Cl)cc5[nH]ncc45)c3C)C2)C1 (single isomer, unassigned) [Example 293a] , IC50 observed: 4000

compound C=CC(=O)N1CC2(CCC(n3nc(N4CCN(C(C)=O)CC4)c(-c4c(Cl)ccc5[nH]ncc45)c3C)C2)C1 (single isomer, unassigned) [Example 53a] , IC50 observed: 4900

compound C=CC(=O)N1CC2(CC(n3nc(N4CCN(S(C)(=O)=O)CC4(C)C)c(-c4c(Cl)c(C)cc5[nH]ncc45)c3C)C2)C1 (single isomer, unassigned) [Example 126b] , IC50 observed: 170

compound C=CC(=O)N1CC2(CC(n3nc(N4CCC5C(=O)N(C)CC5C4)c(-c4c(Cl)c(C)cc5[nH]ncc45)c3C)C2)C1 (stereo not shown) [Example 17] , IC50 observed: 829

[1] C=CC(=O)N1CC2(CC(n3nc(N4CCN(CC5COCCOC5)CC45CCC5)c(-c4c(Cl)c(C)cc5[nH]ncc45)c3C)C2)C1 (single isomer, unassigned) [Example 185a]
[2] C=CC(=O)N1CC2(CC(n3nc(N4CCN(C[C@@H]5COCCO5)C[C@]4(C)CC)c(-c4c(Cl)c(C)cc5c4cnn5C)c3C)C2)C1 (single isomer, unassigned) [Example 109a]
[3] Cc1cc2[nH]ncc2c(-c2c(N3CCN(C4COC4)CC34CCC4)nn(C3CC4(C3)CN(C(=O)/C=C/CF)C4)c2C)c1Cl (single isomer, unassigned) [Example 113b]
Data request: Rank by IC50 (largest to smallest). # list labels per requested ordering
Data returned: 1, 2, 3

---

- target-or-test-system: KRasG12C (M1-K169, biotinylated on the N-terminus) (Homo sapiens (Human), UniProt P01116, G12C)
- assay-comment: Covalent competition assay: scintillation proximity assay (SPA) quantifying covalent modification of KRASG12C
- condition-info: competition with radiolabeled covalent probe (Compound B/Compound A), 2 hours incubation, 10 nM KRasG12C
assay-readout: IC50 (nM)

[1] C=CC(=O)N1CC2(CC(n3nc(N4CCN(CC(C)(C)O)CC45CCCC5)c(-c4c(Cl)c(C)cc5[nH]ncc45)c3C)C2)C1 (single isomer, unassigned) [Example 165b]
[2] C=CC(=O)N1CC2(CC(n3nc(N4CC[C@@H](CN5CCN6C(=O)COC[C@@H]6C5)CC4(C)C)c(-c4c(Cl)c(Cl)cc5[nH]ncc45)c3C)C2)C1 (single isomer, unassigned) [Example 275b]
Data request: Among 1 and 2 , whose measured IC50 is the smaller figure? Answer by quoting the chosen item's label.
Data returned: 2

Reference source for all entries: patent US20240317721A1
